Parameter: EC50. Scope: all listed entries.
- testedSystem: T1, recombinant alipidated human ApoE2 (human, UniProt P02649 19-317)
- T1 construct: mature; full length recombinant protein made in E. coli or bought
- T1 sequence (P02649 19-317 R176C): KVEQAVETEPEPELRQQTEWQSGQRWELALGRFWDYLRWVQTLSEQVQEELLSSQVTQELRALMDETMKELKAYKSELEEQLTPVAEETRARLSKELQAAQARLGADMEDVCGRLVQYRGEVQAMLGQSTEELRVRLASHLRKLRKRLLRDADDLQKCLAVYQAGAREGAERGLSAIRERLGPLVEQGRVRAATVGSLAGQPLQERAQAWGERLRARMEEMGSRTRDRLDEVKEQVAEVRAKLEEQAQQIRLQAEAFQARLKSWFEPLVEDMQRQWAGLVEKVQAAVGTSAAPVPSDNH
- assaySummary: direct ELISA on coated recombinant alipidated ApoE (0.5 ug/ml)
reportedEndpoint: EC50 (pM)

binder	unitOfMeasure	numericValue
HJ154 (antibody, V domains shown, murine monoclonal antibody from hybridoma; also called HJ154B (biotinylated)) VH: QVQLQQPGTEFVMSGASVMLSCKASGYIFTNYWLHWVKQRPGHGLEWIGEIDPSDSYSICNDNFKGKSTLTVDKSSSTAYMQLSSLTSEDSAVYYCAGSLGRVGLAYWGQGTLVTVST VL: QIVLTQSPAIMSASPGEKVTMSCSASSSVSNMYWYQQKPGSSPKSWIYRTSNLASGVPARFSGSGSGTSYSLTISNMEAEDAATYYCQHYQNYPLTFGAGTKLELKR	pM	250
HJ158 (antibody, V domains shown, murine monoclonal antibody from hybridoma) VH: EVQLMESGGDLVKPGGSLELSCTVSGFTFNNYAMSWIRQTPEKRLEWVATISDGGTNTYFPDNVKGRFTISRDNAKSNLYLQMSHLQSEDTAMYYCAREGRGTWFAYWGQGTLVTVSA VL: DVVMTQTPLSLPVSLGDQASISCRSSQSLVHINGNTYLHWSLQKPGQSPKLLIYKVSNRFSGVPDRFSGSGSGTDFTLKISRVEAEDLGIYFCSQNTHLPLTFGAGTKLELKR	pM	70
HJ1531 (antibody, V domains shown, murine monoclonal antibody from hybridoma) VH: EVQFVESGGGLVQPKGSLKLSCAASGFSFNIYAMNWVRQAPGKGLEWVARIRSKSNDYATFYADSVKDRFTISRDDSESMLYLQMNNLKIEDTAMYYCVSPYDGALAYWGQGTSVTVSS VL: DIQMNQSPSSLFASLGDTITITCHASQNINVWLSWYQQKPGNIPKLLIYKASNLHTGVSSRFSGSGSGTDFTLTINNLQPEDIATYYCQQGQSYPLTFGAGTKLELKR	pM	50
HJ1536 (antibody, V domains shown, murine monoclonal antibody from hybridoma) VH: EVQFVESGGGLVQPKGSLKLSCEVSGFSFNTYAMNWVRQAPGKGLEWVARIRNKTNNYATFYADSVKDRFTISRDDSKNTLYLQMNNLKAEDTAMYFCASPYDGSFAYWGQGTLVTVSA VL: DIQMNQSPSSLSASLGDTITITCHASQNINIWLSWYQQKPGNIPKLLIYKASNLHTGVPSRFSGSGSGTGFTLTISSLQPEDIATYYCQQGHSYPLTFGGGTKLEIKR	pM	90

Data credit: patent US20250145697A1
